Experiment: Solubility of exemplary therapeutic agents in organic solvents
Conditions: solvent Ethyl acetate
Structures can show the parent of a compound that is named as a salt.
Metric Name: Solubility

Known results for molecules:
{"columns": ["Molecule", "Solubility"],
 "data": [
  ["O=C(c1ccc(OCCN2CCCCC2)cc1)c1c(-c2ccc(O)cc2)sc2cc(O)ccc12 [Raloxifene HCl]", "non-soluble"],
  ["OCCOCCN1CCN(C2=Nc3ccccc3Sc3ccccc32)CC1 [Quetiapine fumarate]", "non-soluble"],
  ["CN1C[C@H]2c3ccccc3Oc3ccc(Cl)cc3[C@@H]2C1 (relative stereo) [Asenapine maleate]", "soluble"],
  ["CC(C)c1nc(N(C)S(C)(=O)=O)nc(-c2ccc(F)cc2)c1/C=C/[C@@H](O)C[C@@H](O)CC(=O)O", "soluble"],
  ["CNCC[C@H](Oc1cccc2ccccc12)c1cccs1 [Duloxetine HCl]", "non-soluble"]
]}

Recorded Solubility of O=C1CCc2ccc(OCCCCN3CCN(c4cccc(Cl)c4Cl)CC3)cc2N1 , please. soluble
